B1: Transcription intermediary factor 1-beta, residues 620 to 671; numbered along this chain, Q13263 (parent)
chain: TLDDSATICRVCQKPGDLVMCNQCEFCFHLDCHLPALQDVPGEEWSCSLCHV

# Variants of: B1
# method: abundance fitness (aPCA) (normalised: wild type 0, dead -1); higher = more abundant; growth selection in yeast, the domain comes from the species named
# measurement_context: Homo sapiens
metric: abundance fitness

mutations | meas_value
L34G | 0.098
Q38G | -0.181
P35R | -0.488
R10C | -0.363
I8P | -0.302
C24D | -0.769
E44P | -0.369
D17R | -0.062
P15K | -0.193
D4L | 0.135
T1M | -0.363
T7E | 0.004
F26S | -0.192
D3A | -0.723
V19G | -0.852
P41T | -0.619
L2P | 0.179
H51G | -0.302
A36P | 0.077
L30F | -0.609
P15H | -0.132
L34E | 0.188
H51I | -0.264
L18R | -0.889
V19E | -0.519
N22Q | -0.116
D17E | -0.119
L49Y | 0.131
D31K | -0.528
E25V | -0.493
P35V | -0.458
S46H | -0.113
H51W | -0.345
P15M | -0.168
F26N | -0.122
R10I | -0.866
H33K | -0.218
A6R | -0.275
E25W | -0.322
E43A | 0.035
L30W | -0.271
C9V | -0.902
C32K | -0.795
C50Y | -1.03
G42T | 0.174
D3M | -0.529
